phosphorylation enrichment reference
- Target Or Test System: EPHB2 (UniProt P29323)
- Sequence (P29323 whole entry, looked up): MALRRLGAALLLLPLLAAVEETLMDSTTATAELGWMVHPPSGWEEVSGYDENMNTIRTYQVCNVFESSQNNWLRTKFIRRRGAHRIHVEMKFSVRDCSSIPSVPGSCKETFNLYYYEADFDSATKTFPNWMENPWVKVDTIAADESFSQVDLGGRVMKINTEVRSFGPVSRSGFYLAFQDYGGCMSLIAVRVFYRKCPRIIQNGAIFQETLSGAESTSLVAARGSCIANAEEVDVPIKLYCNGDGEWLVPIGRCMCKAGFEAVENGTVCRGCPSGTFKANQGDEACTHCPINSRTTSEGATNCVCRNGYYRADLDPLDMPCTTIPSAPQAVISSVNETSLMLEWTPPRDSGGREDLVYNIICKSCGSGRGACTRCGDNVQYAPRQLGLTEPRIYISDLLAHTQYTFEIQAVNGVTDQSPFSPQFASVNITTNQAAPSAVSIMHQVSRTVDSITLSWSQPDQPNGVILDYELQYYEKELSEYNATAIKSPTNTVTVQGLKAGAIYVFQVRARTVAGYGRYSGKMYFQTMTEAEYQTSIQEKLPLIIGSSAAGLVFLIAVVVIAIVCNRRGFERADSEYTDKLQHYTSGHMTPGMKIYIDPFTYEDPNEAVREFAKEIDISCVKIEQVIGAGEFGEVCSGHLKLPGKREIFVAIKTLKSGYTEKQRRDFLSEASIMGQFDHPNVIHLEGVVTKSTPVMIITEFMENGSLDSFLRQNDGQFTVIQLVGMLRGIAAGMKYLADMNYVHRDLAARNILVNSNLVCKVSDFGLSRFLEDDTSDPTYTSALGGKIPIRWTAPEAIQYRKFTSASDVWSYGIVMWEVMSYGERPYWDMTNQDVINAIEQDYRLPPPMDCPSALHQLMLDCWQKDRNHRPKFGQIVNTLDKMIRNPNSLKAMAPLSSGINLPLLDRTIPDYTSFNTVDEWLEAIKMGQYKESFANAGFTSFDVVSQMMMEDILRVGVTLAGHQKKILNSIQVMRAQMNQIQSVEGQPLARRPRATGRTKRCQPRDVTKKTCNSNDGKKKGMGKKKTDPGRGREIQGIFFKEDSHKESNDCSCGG
- Protocol Details: phosphorylation enrichment, bacterial display (enrichment ratio); higher = better substrate or ligand; peptides without Tyr show the background
Assay Readout: phosphorylation enrichment

| Macromolecule Sequence | Meas Value |
| --- | --- |
| NPIGLYSAEIL [LDB3_Y202_T206I] | 2.6 |
| GGGMIYPLDLF | 0.496 |
| RKMSSYAFFVQ [HMGB1_Y16_G11R] | 0.352 |
| RICRRYCQVLN [IQCF1_Y144_R141C] | 0.624 |
| LTMAPYSSVSL [FAM81A_Y24] | 0.45 |
| PLKFLYPNIDK [STAT1_Y668_YF] | 1.3 |
| GDPTEYFSTAI [IGSF22_Y501_YF] | 0.645 |

---

- Target Or Test System: SHP2-C SH2;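 note: peptide library displayed on the E. coli surface as eCPX fusions, selected cells deep-sequenced, score is each peptide's frequency after selection divided by its frequency in the input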
- Protocol Details: SH2 binding enrichment of the phosphorylated peptide, bacterial display (enrichment ratio); higher = better substrate or ligand; peptides without Tyr show the background
Threshold check on SH2 binding enrichment: at or above 0.7 gives True, strictly below gives False.

| Macromolecule Sequence | Assigned Category |
| --- | --- |
| KYLENYYDLEK [MMP3_Y41_K45E] | True |
| RQNQEYEILMD [KRT39_Y379_L383M] | False |
| SVVVPYDPPEV [TP53_Y220_E221D] | True |
| SVTCTYSLALN [TP53_Y126_P128L] | True |
| TIMTDYNPNFC [ALK_Y1092_YF] | False |
| EHLNRYINDTF [TTLL10_Y446_S448N] | True |
| ANYTEYVATSW [CDKL5_Y171_R175S] | False |
| ASFGPNTRVQS [FOXL2_Y258_Y258N_YF] | False |
| PQGVRYTYTID [DCX_Y103_I104T] | True |
| FQKDVYDIPPS [NEDD9_Y177_YF] | True |
| ENGPFYASFPP [GDAP2_Y488_T489A_YF] | False |
| RRNNSYTCFTA [SLC20A2_Y386_YF] | False |
| MANFVYKAGPS [MAML2_Y515_M514V_YF] | True |

---

- Target Or Test System: FGFR1 (UniProt P11362)
- Sequence (P11362 whole entry, looked up): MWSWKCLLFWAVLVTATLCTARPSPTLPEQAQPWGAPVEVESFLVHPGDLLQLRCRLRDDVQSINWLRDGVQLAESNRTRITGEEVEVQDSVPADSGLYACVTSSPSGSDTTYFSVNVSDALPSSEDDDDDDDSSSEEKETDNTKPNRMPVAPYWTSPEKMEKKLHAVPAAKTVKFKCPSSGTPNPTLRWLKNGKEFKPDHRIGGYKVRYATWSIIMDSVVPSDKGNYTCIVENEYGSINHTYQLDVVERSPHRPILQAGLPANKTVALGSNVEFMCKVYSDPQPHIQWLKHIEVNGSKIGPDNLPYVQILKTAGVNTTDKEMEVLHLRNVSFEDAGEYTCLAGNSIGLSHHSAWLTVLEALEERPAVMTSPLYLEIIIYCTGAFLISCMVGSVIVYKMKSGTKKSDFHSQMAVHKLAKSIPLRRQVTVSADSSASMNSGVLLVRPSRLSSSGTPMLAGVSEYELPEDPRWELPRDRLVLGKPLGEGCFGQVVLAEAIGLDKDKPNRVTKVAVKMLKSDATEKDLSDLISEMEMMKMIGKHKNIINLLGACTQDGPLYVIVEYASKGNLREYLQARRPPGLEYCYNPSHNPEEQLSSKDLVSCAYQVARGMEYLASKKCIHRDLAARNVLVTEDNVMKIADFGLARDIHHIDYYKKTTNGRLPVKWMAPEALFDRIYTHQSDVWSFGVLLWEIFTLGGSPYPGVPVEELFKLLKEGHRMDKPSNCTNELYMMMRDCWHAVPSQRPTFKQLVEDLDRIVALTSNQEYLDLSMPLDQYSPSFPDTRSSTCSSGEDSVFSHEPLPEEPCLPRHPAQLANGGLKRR
- Protocol Details: phosphorylation enrichment, bacterial display (enrichment ratio); higher = better substrate or ligand; peptides without Tyr show the background

| Macromolecule Sequence | phosphorylation enrichment |
| --- | --- |
| SSMIDYKPLEK [MYOC_Y479_N480K] | 0.377 |
| EIIPFYGMSTY [FNDC3B_Y175] | 0.454 |
| RSAGKYDVYFI [MECP2_Y120_L124F] | 0.535 |
| TENAGYFFRVS | 0.442 |
| GVTLLYFGRFN [ADGRD1_Y85_YF] | 0.448 |
| VIDGKYAFKPK [GTF2E2_Y137] | 0.348 |
| EKKDLYKAGEQ [CFH_Y1008_V1007L] | 0.356 |
| KDGNGYISVAE [CALM3_Y100_A103V] | 0.404 |
| LDMSQYFRLFN [CPT2_Y217] | 2.15 |
| ISDNACQYMLT [MYH7_Y162_Y162C] | 0.623 |
| KANEFYPVVLI [ADAMTS18_Y765_YF] | 2.76 |
| DGTIVYTGLET [USH2A_Y4487] | 0.755 |
| GLIPAYHRVIM [NMNAT1_Y64] | 0.572 |
| PTQLPYDHKWE [KIT_Y578] | 0.581 |
| DVQNAYDSNHC [ZFYVE16_Y36] | 0.487 |
| VFAANYFKLLG [ROR2_Y645_D644N_YF] | 2.44 |
| KEAQVYQAFKL [SUCLG2_Y343] | 0.516 |
| PVADRYDQSFE [MAPK14_Y323_P322R] | 0.653 |
| VTPSEYLEIVR [TMEM130_Y412_E407V] | 0.557 |
| KRLKDYLTVLQ [USP25_Y425] | 0.506 |
| VTRKEYFIFLE [CAMKV_Y95] | 0.786 |
| WFPANYVKLLN [ITSN1_Y1132_S1137N] | 0.599 |
| QCTSAYLLQPE [NANS_Y188_P189L] | 0.733 |
| TLARLYHRDST [LRIG1_Y1029_P1031R] | 0.563 |
| QRALLYEDTLF [UNC13D_Y56_A59T_YF] | 0.599 |
| RLLRGHDQSAF [HLA-C_Y137_Y137H_YF] | 0.427 |
| TPGPNYCPGFN [USH2A_Y463_R464C_YF] | 0.515 |
| CTTIRYNYMCN [TP53_Y234_H233R] | 0.475 |
| LSSEMYVKSYT [F5_Y2149] | 1.27 |
| SIRYNYLLDVL [FGFR4_Y237] | 0.479 |
| IHTEFYDGLFP [BCR_Y561_K558T] | 0.683 |
| MTFMFYRENLR [NLRP14_Y443_V441M_YF] | 0.545 |
| CSTIHYNYMCN [TP53_Y234_T230S] | 0.545 |
| NKHTTYTMEHI [ACTN1_Y708_N707T] | 0.395 |
| QLQVFYATLDQ [MIPEP_Y579] | 1.12 |
| ISKKIYDPIHD [CTNNA3_Y614_T616P] | 0.436 |
| TLPAFYMENFS [GLB1_Y552_G554E] | 0.439 |
| PLQSEYSSITT [ITGB4_Y1760] | 1.08 |
| VFAPDFIAGVS [NOB1_Y366_Y366F] | 0.664 |
| DAHFTYSRYPW [LY75_Y888_D884A] | 0.716 |
| AVLALHNSTRD [TGFB1_Y81_Y81H] | 0.346 |
| VLTSKHRGGGG [HBA1_Y141_Y141H] | 0.464 |
| YSIAQYCCRMG [LRRK2_Y2023_G2019S] | 0.987 |
| NKVKFYIPYMN [NCR1_Y84_D87Y] | 0.483 |
| NKVKFYIPFMN [NCR1_Y84_D87Y_YF] | 0.431 |
| MSLPGYKLVTG [GJA1_Y286_P283L] | 0.495 |
| ARAGEYGAEAL [HBA1_Y25_H21R] | 0.473 |
| VNYGAYINYFK [GLB1_Y488_D491Y] | 0.905 |
| SVMAEYGLYAA [VSX2_Y219_G223A] | 0.654 |
| KMKGDYYRSLA [YWHAG_Y130_Y133S] | 0.718 |
| GHEYIYVDPMQ [PDGFRA_Y574] | 14.4 |
| VQEDIYDEFVV [ALDH2_Y332_E337V] | 0.599 |
| TKQLTYEEQDL [PIK3C3_Y310] | 0.576 |
| HLEKKYVHRDS [CSF1R_Y708_R710H] | 0.42 |
| LLIMEYAKYGS [RET_Y806_V804M] | 0.999 |
| ETEMLYGSARR [PRC1_Y464_P468R] | 0.429 |
| GYITSYREEEQ | 0.595 |
| NLGQQYNSPQE [UMPS_Y432] | 0.614 |

Ref: the supplement of paper PMC10065799
